Listed binders paired with reported OD450
measurement_target: T1, human MSLN-R2-his protein (human, UniProt Q13421 391-486)
T1 construct: Region 2 of human mesothelin, made in HEK293E cells, His-tagged; also called human MSLN-R2 protein; hMSLN-R2-his; not shown: His tag
T1 sequence (Q13421 other isoform, or with tags, fused parts or gaps): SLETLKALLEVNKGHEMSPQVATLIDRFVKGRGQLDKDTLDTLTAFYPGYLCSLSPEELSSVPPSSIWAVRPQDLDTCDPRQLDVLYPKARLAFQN
test_details: ELISA on coated MSLN-R2; antibody 0.1 nM
Hi! Could you send only the number? It should be in OD450, unit omitted.

// query Look up OD450: S009-F8-12.13 (antibody, human IgG1, kappa, V domains shown) VH: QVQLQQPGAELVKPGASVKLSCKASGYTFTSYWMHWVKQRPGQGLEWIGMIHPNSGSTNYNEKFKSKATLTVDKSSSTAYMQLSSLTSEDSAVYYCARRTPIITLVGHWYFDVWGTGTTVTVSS VL: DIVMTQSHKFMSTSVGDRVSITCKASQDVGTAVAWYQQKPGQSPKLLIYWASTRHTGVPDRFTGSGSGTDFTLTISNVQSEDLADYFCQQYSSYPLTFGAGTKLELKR
// result 0.05

// query Look up OD450: S009-F8-15.19 (antibody, human IgG1, kappa, V domains shown) VH: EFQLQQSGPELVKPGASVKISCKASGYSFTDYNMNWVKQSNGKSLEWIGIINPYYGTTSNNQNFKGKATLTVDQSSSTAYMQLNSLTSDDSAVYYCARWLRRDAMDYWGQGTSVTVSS VL: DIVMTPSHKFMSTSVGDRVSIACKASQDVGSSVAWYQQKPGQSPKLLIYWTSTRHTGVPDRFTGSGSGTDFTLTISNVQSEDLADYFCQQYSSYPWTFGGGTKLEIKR
// result 0.04
